# experimental.target: D2S receptor (Homo sapiens)
# Construct: expressed in transfected cells
# Sequence (P14416 1-414 isoform P14416-2): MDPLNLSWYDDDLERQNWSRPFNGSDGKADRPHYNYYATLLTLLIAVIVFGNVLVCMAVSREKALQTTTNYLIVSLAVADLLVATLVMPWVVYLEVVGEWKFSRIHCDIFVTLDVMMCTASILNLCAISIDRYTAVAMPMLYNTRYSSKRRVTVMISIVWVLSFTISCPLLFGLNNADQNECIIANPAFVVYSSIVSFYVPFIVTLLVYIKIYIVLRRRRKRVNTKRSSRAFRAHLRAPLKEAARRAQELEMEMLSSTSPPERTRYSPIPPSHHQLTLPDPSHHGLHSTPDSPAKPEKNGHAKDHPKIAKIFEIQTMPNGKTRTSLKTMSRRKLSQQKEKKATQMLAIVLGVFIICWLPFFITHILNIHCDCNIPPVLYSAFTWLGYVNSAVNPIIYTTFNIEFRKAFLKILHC
# protocol.details: D2S receptor cAMP agonist test
# Type: cell-based
# experimental.parameters: HEK293 cell strain stably expressing D2S receptor; positive control dopamine 1×10^−7 M
Each entry below lists one item and its recorded D2S Max Act % value.

O=C1Nc2cc(OCCCCN3CCN(c4cccc(O)c4Cl)CC3)ccc2C2CC12 (stereo not shown) : 92.4%
O=C1Nc2cc(OCCCCN3CCN(c4cccc5c4OCC5)CC3)ccc2C2CC12 (single isomer, unassigned) [Example 44-P1] : 96.8%
O=C1Nc2cc(OCCCCN3CCN(c4cccc5c4OCC5)CC3)ccc2C2CC12 (stereo not shown) [Example 44] : 91.0%
O=C1Nc2cc(OCCCCN3CCN(c4cccc(Cl)c4Cl)CC3)ccc2C2CC12 (stereo not shown) : 114.9%

Prompt: Give me measured D2S Max Act %, please, for this compound: O=C1Nc2cc(OCCCCN3CCN(c4cccc5c4CCC5)CC3)ccc2C2CC12 (stereo not shown) [Example 43]
Response: 134.9%
